test: Liver microsomes stability, rat; settings: rat liver microsomes
QUANTITY KIND: microsomal CLint at 2 μM (µL/min/mg)
One number for each entry, in µL/min/mg.

{"COMPOUND": "COc1cccc2c1C(C[C@H]1CCCN1C)CN2 (stereo partly drawn) [(R)-I-94]", "microsomal CLint at 2 μM, µL/min/mg": 17.2}
{"COMPOUND": "COc1ccc2c(c1)C(C[C@H]1CCCN1)CN2 (stereo partly drawn) [(R)-I-165]", "microsomal CLint at 2 μM, µL/min/mg": 41.9}
{"COMPOUND": "CN1CCC[C@@H]1C[C@H]1CNc2ccc(F)cc21 [(R),(R)-I-47]", "microsomal CLint at 2 μM, µL/min/mg": 141}

Query: Could you share which microsomal CLint at 2 μM value was measured for COc1ccc2c(c1)C(C[C@H]1CCCN1C)CN2 (stereo partly drawn) [(R)-I-54] ?
Reply: 252

Source: patent US20260083703A1
